Sourced from patent US20140073631A1

# System: B. mallei
# experiment_description: microbe, parasite or virus in culture
# Type: cell-based
# cond: Burkholderia mallei, read-out: MIC B. mallei
quantity: MIC (µg/mL)
Give bare numbers, in µg/mL.

>>> test_value("C[C@@H]1COc2c(N3CCN(C(=N)NC(=N)N4CCN(c5c(F)cc6c(=O)c(C(=O)O)cn7c6c5OC[C@@H]7C)CC4)CC3)c(F)cc3c(=O)c(C(=O)O)cn1c23 [BVS-76D (XVII)]")
1
>>> test_value("C[C@@H]1COc2c(N3CCN(C(=N)NC(=N)NCCCCCCNC(=N)NC(=N)N4CCN(c5c(F)cc6c(=O)c(C(=O)O)cn7c6c5OC[C@@H]7C)CC4)CC3)c(F)cc3c(=O)c(C(=O)O)cn1c23 [BVS-85A (XVII)]")
0.5
>>> test_value("CC1COc2c(N3CCN(C(=N)NC#N)CC3)c(F)cc3c(=O)c(C(=O)O)cn1c23 (centres unmarked) [BVS-60C (XVII)]")
1

Okay, next one:
Hello, please tell me recorded MIC for this one: O=C(O)c1cn(C2CC2)c2cc(N3CCNCC3)c(F)cc2c1=O [Ciprofloxacin, ciprofloxacin, reference compound] 1

----------
# System: H37Rv Colorado strain
# experiment_description: MBC Determination with H37Rv Colorado strain (Table 9)
# Assay type: cell-based
# cond: Mycobacterium tuberculosis; Performed with H37Rv
Would you mind telling me the reported MBC of each entry?

>>> test_value("CC1COc2c(N3CCN(C(=N)NC#N)CC3)c(F)cc3c(=O)c(C(=O)O)cn1c23 (centres unmarked) [BVS-60C (XVII)]")
"0.625 µg/mL"
>>> test_value("NNC(=O)c1ccncc1 [Isoniazid, isoniazid, reference compound]")
"0.031 µg/mL"

# map each molecule to its MBC
1. C[C@@H]1COc2c(N3CCN(C(=N)NC(=N)NCCCCCCNC(=N)NC(=N)N4CCN(c5c(F)cc6c(=O)c(C(=O)O)cn7c6c5OC[C@@H]7C)CC4)CC3)c(F)cc3c(=O)c(C(=O)O)cn1c23 [BVS-85A (XVII)]
2. C[C@@H]1COc2c(N3CCN(C(=N)NC(=N)N4CCN(c5c(F)cc6c(=O)c(C(=O)O)cn7c6c5OC[C@@H]7C)CC4)CC3)c(F)cc3c(=O)c(C(=O)O)cn1c23 [BVS-76D (XVII)]
3. CO[C@H]1/C=C/O[C@@]2(C)Oc3c(C)c(O)c4c(O)c(c(/C=N/N5CCN(C)CC5)c(O)c4c3C2=O)NC(=O)/C(C)=C\C=C\[C@H](C)[C@H](O)[C@@H](C)[C@@H](O)[C@@H](C)[C@H](OC(C)=O)[C@@H]1C [Rifampin, rifampin, reference compound]

["1.25 µg/mL", "0.625 µg/mL", "0.0063 µg/mL"]

----------
# System: E. coli
# experiment_description: microbe, parasite or virus in culture
# Type: cell-based
# cond: Escherichia coli, read-out: MIC E. coli
quantity: MIC

>>> test_value("O=C(O)c1cn(C2CC2)c2cc(N3CCNCC3)c(F)cc2c1=O [Ciprofloxacin, ciprofloxacin, reference compound]")
"0.015 to 0.06 µg/mL"

List MIC for every entry below, keeping the order given.
1. C[C@@H]1COc2c(N3CCN(C(=N)NC(=N)NCCCCCCNC(=N)NC(=N)N4CCN(c5c(F)cc6c(=O)c(C(=O)O)cn7c6c5OC[C@@H]7C)CC4)CC3)c(F)cc3c(=O)c(C(=O)O)cn1c23 [BVS-85A (XVII)]
2. O=C(O)C1=C(c2ccc(F)c(N3CCNCC3)c2)N(C23CC4CCC(C2)C(C4)C3)C(=O)CC1 (centres unmarked) [BVS-97E (XIV)]
3. C[C@@H]1COc2c(N3CCN(C(=N)NC(=N)N4CCN(c5c(F)cc6c(=O)c(C(=O)O)cn7c6c5OC[C@@H]7C)CC4)CC3)c(F)cc3c(=O)c(C(=O)O)cn1c23 [BVS-76D (XVII)]
4. CC1COc2c(N3CCN(C(=N)NC#N)CC3)c(F)cc3c(=O)c(C(=O)O)cn1c23 (centres unmarked) [BVS-60C (XVII)]

1. < 0.06 µg/mL
2. 16 to 32 µg/mL
3. < 0.06 µg/mL
4. 0.06 to 0.12 µg/mL

----------
# Test system: fresh human peripheral blood mononuclear cells
quantity: CC50

Give the reported CC50 for this compound. Cc1cn([C@H]2C[C@H](N=[N+]=[N-])[C@@H](CO)O2)c(=O)[nH]c1=O [AZT, reference compound] > 4 µM

----------
Answer each item with its documented IC50.
# System: Plasmodium falciparum
# experiment_description: Anti-malaria testing
# Assay type: cell-based
# cond: average of Test 1 and Test 2, read-out: Average IC50
One number for each entry, in µM.

Examples from the recorded data:
>>> test_value("C[C@@H]1COc2c(N3CCN(C(=N)NC(=N)NCCCCCCNC(=N)NC(=N)N4CCN(c5c(F)cc6c(=O)c(C(=O)O)cn7c6c5OC[C@@H]7C)CC4)CC3)c(F)cc3c(=O)c(C(=O)O)cn1c23 [BVS-85A (XVII)]")
7.26
>>> test_value("C[C@@H]1COc2c(N3CCN(C(=N)NC(=N)N4CCN(c5c(F)cc6c(=O)c(C(=O)O)cn7c6c5OC[C@@H]7C)CC4)CC3)c(F)cc3c(=O)c(C(=O)O)cn1c23 [BVS-76D (XVII)]")
2.72

Let us move to another entry and its IC50.
// fetch IC50 given entry CC1COc2c(N3CCN(C(=N)NC#N)CC3)c(F)cc3c(=O)c(C(=O)O)cn1c23 (stereo not shown) [BVS-60C (XVII)] 6.11
